- System: 889142-216-R-J1-PDC complex spheroid viability;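 note: spheroids exposed to compounds for seven days; 100% = DMSO vehicle control viability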
- assay_procedure: Anticancer human tumor 889142-216-R-J1-PDC patient-derived bladder carcinoma cell line growth inhibition [POLQ]
- reported_conditions: second compound 3.16 µM; first compound 0.0316 µM; active compounds read low
measured_attribute: viability, T/C (%)
Please give a number only; it is taken to be in %.

Ask: Fill blank: measured viability, T/C of the compound C=CCn1c(=O)c2cnc(Nc3ccc(N4CCN(C)CC4)cc3)nc2n1-c1cccc(C(C)(C)O)n1 + COC1C(OC(N)=O)C(O)C(Oc2ccc3c(O)c(NC(=O)c4ccc(O)c(CC=C(C)C)c4)c(=O)oc3c2C)OC1(C)C is ____.
Result: 85.4

Ask: Repeat with CCc1c2c(nc3ccc(O)cc13)-c1cc3c(c(=O)n1C2)COC(=O)[C@]3(O)CC + Nc1ccc(C#CCN(C(=O)Cc2ncc(C(F)(F)F)cc2C(F)(F)F)c2ccc(F)cc2)nn1
Result: 39.4

Ask: Record: C#Cc1c(F)ccc2cc(O)cc(-c3ncc4c(N5CC6CCC(C5)N6)nc(OCC56CCCN5CC(F)C6)nc4c3F)c12 (stereo unspecified) + COC1C(OC(N)=O)C(O)C(Oc2ccc3c(O)c(NC(=O)c4ccc(O)c(CC=C(C)C)c4)c(=O)oc3c2C)OC1(C)C
Result: 96.9

Ask: Then this compound: COc1cccc(OCCCN)c1-c1cc(Nc2cnc(C#N)cn2)n[nH]1 + Cc1cccc(N(C)C(=O)C2C(O)CCN2c2nc(C)cc(C(F)(F)F)c2C#N)c1
Result: 63.8

Ask: Then this compound: CCc1cc2c(N3CCc4c(cc(Cn5ccnc5)cc4-c4cn(C)nc4C(F)(F)F)C3=O)cc(C)nc2c(OC)n1 + Cc1cccc(N(C)C(=O)C2C(O)CCN2c2nc(C)cc(C(F)(F)F)c2C#N)c1
Result: 104

Ask: How about COc1cc2cc(C(=O)CCC(=O)O)sc2cc1OC + Nc1ccc(C#CCN(C(=O)Cc2ncc(C(F)(F)F)cc2C(F)(F)F)c2ccc(F)cc2)nn1 ?
Result: 108

Ask: Likewise for O=C(c1cc(Cc2n[nH]c(=O)c3ccccc23)ccc1F)N1CCN(C(=O)C2CC2)CC1 + COC1C(OC(N)=O)C(O)C(Oc2ccc3c(O)c(NC(=O)c4ccc(O)c(CC=C(C)C)c4)c(=O)oc3c2C)OC1(C)C ?
Result: 123

Ask: Would you mind doing CC1COCCN1c1cc(C2(S(C)(=N)=O)CC2)nc(-c2ccnc3[nH]ccc23)n1 (stereo unspecified) + COC1C(OC(N)=O)C(O)C(Oc2ccc3c(O)c(NC(=O)c4ccc(O)c(CC=C(C)C)c4)c(=O)oc3c2C)OC1(C)C as well?
Result: 100

Ask: COc1cc2cc(C(=O)CCC(=O)O)sc2cc1OC + Cc1cccc(N(C)C(=O)C2C(O)CCN2c2nc(C)cc(C(F)(F)F)c2C#N)c1 , same question.
Result: 96.8

Ask: Let us now turn to O=c1[nH]cc(F)c(=O)[nH]1 + Nc1ccc(C#CCN(C(=O)Cc2ncc(C(F)(F)F)cc2C(F)(F)F)c2ccc(F)cc2)nn1
Result: 82.7

Ask: What do you get for O=C(c1cc(Cc2n[nH]c(=O)c3ccccc23)ccc1F)N1CCN(C(=O)C2CC2)CC1 + Nc1ccc(C#CCN(C(=O)Cc2ncc(C(F)(F)F)cc2C(F)(F)F)c2ccc(F)cc2)nn1 ?
Result: 104
